ASSAY_PROCEDURE: HCT116 colon cancer cell growth inhibition, primary screen, CellTiter-Glo luminescence, NPC library (AID 1117342)
CONDITION_LABEL: at 20 µM (top of the series)
PROPERTY: inhibition of viability (%)

COMPOUND	UNITS_OF_MEASURE	EXPERIMENTAL_VALUE
NS(=O)(=O)c1cc2c(cc1C(F)(F)F)NCNS2(=O)=O	%	-2
CCOC(=O)N1CCC(n2c(=O)[nH]c3cc(Cl)ccc32)CC1	%	49.4
Cc1ccccc1C(=O)Nc1ccc(C(=O)N2CCCC(N(C)C)c3ccccc32)cc1 (stereo unspecified)	%	80.2
CN[C@@H]1[C@@H](O)[C@@H](O[C@@H]2[C@H](O)[C@H](O[C@H]3OC(CN)=CC[C@H]3N)[C@@H](N)C[C@H]2N)OCC1(C)O (stereo partly specified)	%	-0.03
COC(=O)[C@H]1[C@H]2C[C@@H]3c4[nH]c5cc(OC)ccc5c4CCN3C[C@H]2C[C@@H](OC(=O)COc2ccc(OC)cc2)[C@@H]1OC	%	33.6
COCCc1ccc(OCC2CO2)cc1 (stereo unspecified)	%	-0.6
C[N+](C)(CCOc1ccccc1)Cc1cccs1	%	27.5
Cc1cc2nc3c(=O)[nH]c(=O)nc-3n(C[C@H](O)[C@H](O)[C@H](O)COP(=O)(O)OP(=O)(O)OC[C@H]3O[C@@H](n4cnc5c(N)ncnc54)[C@H](O)[C@H]3O)c2cc1C	%	-18.9
CN(C)CCOc1ccccc1Cc1ccccc1	%	11.4
CCC(=O)Oc1ccc2c(c1)CC[C@@H]1[C@H]2CC[C@]2(C)[C@@H](OC(=O)CC)CC[C@@H]12	%	42.6
C/C=C/c1ccc(O)c(OC)c1	%	8.25
O=C1CCCc2c(O)cccc21	%	11.4
O=C(O)C(Cc1cc(I)c(O)c(I)c1)c1ccccc1 (stereo unspecified)	%	40.4
C/C=C/C(=O)N(CC)c1ccccc1C	%	-11.3
CC(=O)N1CCN(c2ccc(O)cc2)CC1	%	38.5
O=C(O)CCC(=O)C(=O)O	%	-1.4
CCN(CC)CCN	%	-0.4
c1ccc(-n2cnnn2)cc1	%	1.7
NC(=O)c1cnccn1	%	-20.7
C[C@@H]1CCC[C@H](C)N1CCCC(O)(c1ccccc1)c1ccccn1 (stereo partly specified)	%	-3.7
N#CSCC(=O)O	%	-4.8
O=P(O)(O)OCC(O)CO (stereo unspecified)	%	9.3
Cc1cccc(Nc2ccccc2C(=O)O)c1C	%	-21
O=C(CCCN1CCN(c2ccc(F)cc2)CC1)NC1c2ccccc2CSc2ccccc21 (stereo unspecified)	%	47.5
O=C1[C@H](CC[C@H](O)c2ccc(F)cc2)[C@@H](c2ccc(O)cc2)N1c1ccc(F)cc1	%	32.6
Cc1ccc(C(C)OC(=O)C2(C)CCC(C(=O)O)C2(C)C)cc1 (stereo unspecified)	%	0.3
